Assay Target: Cbl-b (Homo sapiens, UniProt Q13191)
Sequence (Q13191 36-427): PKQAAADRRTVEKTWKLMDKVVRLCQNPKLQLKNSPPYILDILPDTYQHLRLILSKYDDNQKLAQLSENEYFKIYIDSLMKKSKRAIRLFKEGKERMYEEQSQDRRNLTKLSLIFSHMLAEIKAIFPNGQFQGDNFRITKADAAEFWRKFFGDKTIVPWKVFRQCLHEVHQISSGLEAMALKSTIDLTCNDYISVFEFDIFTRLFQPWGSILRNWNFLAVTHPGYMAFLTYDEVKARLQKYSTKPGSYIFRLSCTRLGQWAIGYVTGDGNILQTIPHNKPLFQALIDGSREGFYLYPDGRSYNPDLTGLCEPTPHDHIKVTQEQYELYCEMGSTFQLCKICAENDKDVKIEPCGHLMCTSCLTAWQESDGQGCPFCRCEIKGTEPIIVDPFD
Assay Details: Cbl-b activity assay (Cbl-b inhibition assay), TR-FRET of Cbl-b interaction with UbcH5B-Ub
Type: biochemical
Setup Conditions: assay buffer with 100 mM NaCl, 60 nM Src kinase; read-out: Cbl-b activity IC50
pIC50: −log10 of the molar value.
Readout Kind: pIC50

Compound	Value Reported
C[C@H](Sc1nncn1C)c1cccc(NC(=O)c2cc(C(C)(C)O)cc(C(F)(F)F)n2)c1 [Compound 85]	6.52 to 7.00
CCNc1cc([C@H](C)Cc2nncn2C)cc(N2Cc3c(cccc3C(F)(F)F)C2=O)n1 [Compound 360]	> 7.00
C[C@H](Sc1nncn1C)c1ccnc(NC(=O)c2noc3ccccc23)c1 [Compound 115]	5.00 to 5.52
Cn1cnnc1CC1(c2cccc(N3Cc4c(cc(N5CC(C(F)(F)F)C5)cc4C(F)(F)F)C3=O)c2)COC1 [Example 600]	> 7.00
C[C@H](Sc1nncn1C1CC1)c1cccc(NC(=O)c2cc3ccccc3cn2)c1 [Compound 99]	6.00 to 6.52

Entry Cn1cnnc1CC1(c2cccc(N3Cc4c(cc(CN5CCO[C@H](C(F)(F)F)C5)cc4C(F)(F)F)C3=O)c2)COC1 [Example 707] , pIC50 reported as > 7.00

Record Cn1cnnc1CC1(c2cccc(N3Cc4c(cc(CN5CCC(C)(F)CC5)cc4C(F)(F)F)C3=O)c2)COC1 [Example 620] , field pIC50: > 7.00

Reported pIC50 ( C[C@H](Sc1nncn1C)c1cccc(NC(=O)c2cc3ccccc3c(C(F)(F)F)n2)c1 [Compound 63] ) = 5.00 to 5.52

Recorded pIC50 (compound CN1CC2CC(C1)N2c1cc2c(c(C(F)(F)F)c1)CN(c1cccc([C@@](C)(F)C(F)(F)c3nncn3C)c1)C2=O [Example 566] ): > 7.00

The recorded pIC50 for entry Cn1cnnc1[C@H](F)C1(c2cccc(N3Cc4c(cc(CN5CCC(F)CC5)cc4C(F)(F)F)C3=O)c2)COC1 [Example 670b] equals > 7.00

* * *

pIC50 values, listed per item
Assay Target: Cbl-b (Homo sapiens, UniProt Q13191)
Assay Details: Cbl-b activity assay (Cbl-b inhibition assay), TR-FRET of Cbl-b interaction with UbcH5B-Ub
Format: biochemical
Setup Conditions: assay buffer with 100 mM NaCl, 60 nM Src kinase; read-out: Cbl-b activity IC50
pIC50: −log10 of the molar value.

> print(dat)
                                   compound  value.reported
1  CN[C@H]1CCN(C(=O)c2ccnc(C(=O)Nc3cccc([C@H](C)Cc4nncn4C)c3)c2)C1 [Compound 250]    5.52 to 6.00
2  C[C@H](Sc1nncn1C)c1cccc(NC(=O)c2cccc3scnc23)c1 [Compound 88]    5.52 to 6.00
3  C[C@H](O)CNC(=O)c1ccnc(C(=O)Nc2cccc([C@H](C)Sc3nncn3C)c2)c1 [Compound 157]    5.00 to 5.52

Now consider the entry below.
Documented pIC50 of CC(Sc1nncn1C)c1ccc(OC(F)(F)F)c(NC(=O)c2cccc(C(F)(F)F)n2)c1 (centres unmarked) [Compound 94] : 5.52 to 6.00

* * *

Test system: T-cell
Assay Details: CD25 cell surface staining on T-cells stimulated with anti-CD3 antibody alone (Biological Example 2)
Assay type: cell-based
Setup Conditions: 8 μM compound, primary human total T-cells, baseline = anti-CD3/anti-CD28 stimulated cells without inhibitor, read-out: CD25 staining, Anti-CD3 stimulation, fold change over baseline
Readout Kind: fold induction at 8 µM

Per the record, `C[C@H](c1cc2c(c(C(F)(F)F)c1)CN(c1cccc(C3(Cc4nncn4C)COC3)c1)C2=O)N1CCC(F)(F)C1` has fold induction at 8 µM of > 1

Value of fold induction at 8 µM reported for the compound `Cn1cnnc1CC1(c2cccc(N3Cc4c(cc(CN5CC(C(=O)O)C5)cc4C(F)(F)F)C3=O)c2)COC1` is > 1

Looking up `Cn1cnnc1C(F)(F)[C@](C)(F)c1cccc(N2Cc3c(cc(CN4CC[C@@H](C#N)C4)cc3C(F)(F)F)C2=O)c1` , I found its fold induction at 8 µM recorded as > 1

Lab book: fold induction at 8 µM of `Cn1cnnc1CC1(c2cccc(N3Cc4c(cc(CN5CC(C)(F)C5)cc4C(F)(F)F)C3=O)c2)COC1` noted as > 1

Item: `C[C@H](Cc1nncn1C)c1cc(N[C@@H](C)CO)nc(N2Cc3c(cccc3C(F)(F)F)C2=O)c1` | fold induction at 8 µM: > 1

Entry CC(Cc1nncn1C)c1cc(C2CCC2)cc(N2Cc3c(cccc3C(F)(F)F)C2=O)c1 (stereo not drawn) , fold induction at 8 µM reported as 0.801 to 1

// `Cn1cnnc1CC1(c2cccc(N3Cc4c(cc(CN5C[C@@H](F)[C@@H](F)C5)cc4C(F)(F)F)C3=O)c2)COC1` : fold induction at 8 µM value = > 1

The compound identified as `Cn1cnnc1C(F)(F)[C@@](C)(F)c1cccc(N2Cc3c(cc(CN4CC[C@H](F)C4)cc3C(F)(F)F)C2=O)c1` registered its fold induction at 8 µM at 0.801 to 1

Quick note, fold induction at 8 µM for `Cn1cnnc1CC1(c2cccc(N3Cc4c(cc(CN5CC[C@H](C#N)C5)cc4C(F)(F)F)C3=O)c2)COC1` landed at > 1

For `Cn1cnnc1CC(C)(C)c1cccc(N2Cc3c(cc(C4CC4)cc3C(F)(F)F)C2=O)c1` the compound record lists fold induction at 8 µM as > 1

Query `C[C@H](Cc1nncn1C)c1cccc(N2Cc3c(cc(CN4C[C@@H](O)[C@H](F)C4)cc3C(F)(F)F)C2=O)c1` yields fold induction at 8 µM of > 1

The recorded fold induction at 8 µM for `C[C@H](Cc1nncn1C)c1cccc(N2Cc3c(cc([C@H](C)N4CC(O)C4)cc3C(F)(F)F)C2=O)c1` is > 1

* * *

Tested on: T-cell
Assay Details: IL-2 secretion from T-cells co-stimulated with anti-CD3 and anti-CD28 antibody (Biological Example 2)
Assay type: cell-based, human
Setup Conditions: Homo sapiens, T-cell, 1 μM compound; primary human total T-cells; baseline = anti-CD3/anti-CD28 stimulated cells without inhibitor; read-out: IL-2 secretion, Anti-CD3/Anti-CD28 stimulation, fold change over baseline
Readout Kind: fold induction at 1 µM

Examples with their reported fold induction at 1 µM follow.
> print(dat)
                                   molecule            readout.kind  value.reported
1  Cn1cnnc1[C@@H](F)[C@](C)(F)c1cccc(N2Cc3c(cc(C4CC4)cc3C(F)(F)F)C2=O)c1 (stereo in doubt) [Compound 482]  fold induction at 1 µM     1.01 to 2.5
2  Cn1cnnc1CC(C)(C)c1cccc(NC(=O)c2cc(C(=O)N3CC[C@H](O)C3)cc(C(F)(F)F)n2)c1 [Compound 475]  fold induction at 1 µM       2.51 to 5

Cn1cnnc1[C@@H]1C[C@@H]1c1cccc(N2Cc3c(cc(C#N)cc3C(F)(F)F)C2=O)c1 [Compound 408] has a reported fold induction at 1 µM of 1.01 to 2.5

// fold induction at 1 µM lookup, molecule = Cc1[nH]ncc1-c1cc2c(c(C(F)(F)F)c1)CN(c1cccc([C@H](C)Cc3nncn3C)c1)C2=O [Compound 381] , result: 5 to 7.5

For record C[C@H](Cc1nncn1C)c1cccc(N2Cc3c(cc([C@@H](C)N4CC(O)C4)cc3C(F)(F)F)C2=O)c1 [Compound 405] the listed fold induction at 1 µM is 5 to 7.5

Note to self: fold induction at 1 µM recorded for Cc1conc1CC1(c2cccc(NC(=O)c3cc(CN4CCC5(CC5)C4)nc(C4CC4)n3)c2)COC1 [Compound 508] was > 7.5

Notebook: CN(c1cc2c(c(C(F)(F)F)c1)CN(c1cccc([C@@](C)(F)C(F)(F)c3nncn3C)c1)C2=O)[C@H]1CNC[C@H]1F [Example 549] , fold induction at 1 µM read as 2.51 to 5

Consider Cn1cnnc1CC1(c2cccc(NC(=O)c3nc(C4CC4)cs3)c2)COC1 [Compound 493] . Its measured fold induction at 1 µM is 1.01 to 2.5

* * *

Measured fold induction at 1 µM, listed per entry.
Tested on: T-cell
Assay Details: IL-2 secretion from T-cells stimulated with anti-CD3 antibody alone (Biological Example 2)
Type: cell-based
Setup Conditions: 1 μM compound, primary human total T-cells, read-out: IL-2 secretion, Anti-CD3 stimulation, fold change over baseline

> print(dat)
                                   molecule  assay.target  value.reported
1  Cn1cnnc1CC1(c2cccc(N3Cc4c(cc(CN5CCCC6CC65)cc4C(F)(F)F)C3=O)c2)COC1 (centres unmarked) [Compound 490]        T-cell         > 0.201
2  CCOc1cc(N2Cc3c(cc(CN4CC[C@H](F)C4)cc3C(F)(F)F)C2=O)cc(C2(Cc3nncn3C)COC2)c1 [Compound 468]        T-cell         > 0.201
3  Cn1cnnc1C(F)(F)[C@](C)(F)c1cccc(N2Cc3c(cc(CN4CCC(F)(F)C4)cc3C(F)(F)F)C2=O)c1 [Compound 448]        T-cell   0.101 to 0.15
4  Cn1cnnc1C(F)(F)[C@](C)(F)c1cccc(N2Cc3c(cc(-c4cncc(F)c4)cc3C(F)(F)F)C2=O)c1 [Compound 440]        T-cell   0.101 to 0.15
5  C[C@H](Cc1nncn1C)c1cccc(N2Cc3c(cc(CN4CC[C@@H](F)C4)cc3C(F)(F)F)C2=O)c1 [Compound 400]        T-cell         > 0.201

Next molecule, fold induction at 1 µM to be filled in.
Noted for Cc1cc(C(=O)Nc2cccc(C3(Cc4nncn4C)CC(F)(F)C3)c2)nc(C2CC2)n1 [Compound 526] : its fold induction at 1 µM reads > 0.201
